Recorded values, source ChEMBL document CHEMBL1201862.

For each record, write down the corresponding GI50.
system: SK-MEL-2; test: NCI tumour cell line growth inhibition, 48 h
Activity calls are given as the source filed them. Cut-off read from the data, not from the text of the source: active = GI50 up to about 1.1 µM and inactive = higher.

{"columns": ["compound", "target.entity", "GI50"],
 "data": [
  ["O=C(O)c1nc(-c2ccccc2)[nH]c1C(=O)O", "SK-MEL-2", "7.76 µM (inactive)"]
]}

Please give GI50 for each item listed below.
1. Cc1c(/C=N\NC(=S)N2CCN(C(=S)N/N=C\c3c(C)n(C)n(-c4ccccc4)c3=O)CC2)c(=O)n(-c2ccccc2)n1C
2. O=S(=O)(N/N=C/c1ccc(/C=N/NS(=O)(=O)c2ccccc2)cc1)c1ccccc1
3. COc1cc(C(c2ccccc2)N2C(=O)CC[C@H]2C(=O)O)cc(OC)c1OC (stereo partly specified)
4. CCCCCCCC1c2cc3nc(cc4[nH]c(cc5nc(cc([nH]2)[C@@]1(C)CC(=O)N(C)C)C(C)=C5CCC(=O)O)c(CCC(=O)O)c4C)C=C3C (stereo partly specified)
5. O=C1N/C(=N/N=C/c2c[nH]c3ccccc23)N/C1=C\c1cccs1

A.
["13.1 µM (inactive)", "43.5 µM (inactive)", "> 100 µM (inactive)", "18.8 µM (inactive)", "45.5 µM (inactive)"]

Please give GI50 for each item listed below.
1. O=C1CNc2cc(N3CCCCC3)ccc2N1
2. CCOC1(OCC)C2C=CC1C(COS(=O)(=O)c1ccc(C)cc1)C2COS(=O)(=O)c1ccc(C)cc1 (stereo unspecified)
3. COc1ccc(N[S+]([O-])c2ccc(OC)cc2)cc1 (stereo unspecified)
4. CSc1c(C#N)c(N)nc2c(/N=N\c3ccc(Br)cc3)c(N)nn12

A.
> 100 µM (inactive)
28.7 µM (inactive)
16.9 µM (inactive)
4.48 µM (inactive)
